Test system: 3096
Assay: Drug susceptibility assay (cell-killing MTT assay) in MT-2 cells
Details: Human immunodeficiency virus 1, MT2, 120 h
QUANTITY_KIND: pIC50
Note: pIC50 values are expressed as the negative base-10 logarithm of concentration in M.

Which measured pIC50 value corresponds to CCCCC#CCSc1ccccc1OC(C)=O [APHS, o-(acetoxyphenyl)hept-2-ynyl sulfide] ?
5.40

---

System: HIV-1HXB2
Experiment: HIV-1 infection of PBMC, p24-core antigen ELISA
Format: cell-based
Settings: Human immunodeficiency virus 1, 168 h; PBMC infected with HIV-1HXB2, p24 antigen after 7 days
QUANTITY_KIND: pIC50
Note on units: pIC50 is unitless, being -log10 of a concentration expressed in mol/L.

// lookup pIC50 | system=HIV-1HXB2 | key= CCCCC#CCSc1ccccc1OC(C)=O [APHS, o-(acetoxyphenyl)hept-2-ynyl sulfide]
4.96

---

System: HIV-1Ba-L
Assay: HIV-1 infection of monocyte-derived macrophages (MDM), p24-core antigen ELISA
Type: cell-based
Settings: Human immunodeficiency virus 1, Macrophage, 168 h; MDM infected with HIV-1Ba-L, p24 antigen after 7 days
QUANTITY_KIND: pIC50
Scale for pIC50: -log10 of concentration given in mol/L; no unit attached.

Would you kindly share the measured pIC50 for CCCCC#CCSc1ccccc1OC(C)=O [APHS, o-(acetoxyphenyl)hept-2-ynyl sulfide] ?
4.92

---

Test system: HIV-1Ba-L
Assay: HIV-1 infection of PBMC, p24-core antigen ELISA
Assay type: cell-based
Settings: PBMC, HIV-1Ba-L
QUANTITY_KIND: antiviral activity compared to compound 18

{"MOLECULE": "CCSc1ccccc1OC(C)=O [compound 26]", "TARGET_OR_TEST_SYSTEM": "HIV-1Ba-L", "OBS_VALUE": "worse"}
{"MOLECULE": "CCCSc1ccccc1OC(C)=O [compound 24]", "TARGET_OR_TEST_SYSTEM": "HIV-1Ba-L", "OBS_VALUE": "worse"}
{"MOLECULE": "CCCCSc1ccccc1OC(C)=O [compound 22]", "TARGET_OR_TEST_SYSTEM": "HIV-1Ba-L", "OBS_VALUE": "worse"}
{"MOLECULE": "CCCCCSc1ccccc1OC(C)=O [compound 20]", "TARGET_OR_TEST_SYSTEM": "HIV-1Ba-L", "OBS_VALUE": "worse"}

---

Tested on: HIV-1HXB2
Assay: HIV-1 infection of PBL, p24-core antigen ELISA
Assay type: cell-based
Settings: Human immunodeficiency virus 1, 168 h; PBL infected with HIV-1HXB2, p24 antigen after 7 days
QUANTITY_KIND: pIC50
Note on units: pIC50 is unitless, being -log10 of a concentration expressed in mol/L.

Look at this compound and give its reported pIC50. CCCCC#CCSc1ccccc1OC(C)=O [APHS, o-(acetoxyphenyl)hept-2-ynyl sulfide]
4.92

---

Assay: Cellular viability assay (MTT) of MDM
Format: cell-based
Conditions: human, 7 days, read-out: TC50
QUANTITY_KIND: CC50 at 168 h
Answer as a quantity: numeral, then unit.

Sample CCCCC#CCSc1ccccc1OC(C)=O [APHS, o-(acetoxyphenyl)hept-2-ynyl sulfide] — what was its CC50 at 168 h?
235 µM

---

Tested on: PBMC
Test: Cellular viability assay (MTT) of PBMC
Details: PBMC
QUANTITY_KIND: cytotoxicity compared to APHS

Please review the following examples before continuing.
{"COMPOUND": "CCCCCCCSc1ccccc1OC(=O)c1ccccc1 [compound 14, Phenol, 2-(heptylthio)-, benzoate]", "TARGET_OR_TEST_SYSTEM": "PBMC", "cytotoxicity compared to APHS": "increased"}
{"COMPOUND": "CCCCCCCSc1ccccc1O", "TARGET_OR_TEST_SYSTEM": "PBMC", "cytotoxicity compared to APHS": "increase"}
{"COMPOUND": "CCCCOCCSc1ccccc1OC(=O)C(F)(F)F", "TARGET_OR_TEST_SYSTEM": "PBMC", "cytotoxicity compared to APHS": "decreased"}
{"COMPOUND": "CCCCCCCSc1ccccc1OC(=O)CCCC [compound 13, Phenol, 2-(heptylthio)-, valerate]", "TARGET_OR_TEST_SYSTEM": "PBMC", "cytotoxicity compared to APHS": "decreased"}
{"COMPOUND": "CCCCC#CCSc1ccccc1OCC", "TARGET_OR_TEST_SYSTEM": "PBMC", "cytotoxicity compared to APHS": "decreased"}
{"COMPOUND": "CCCCCCCSc1ccc(OC(C)=O)cc1 [compound 16, Phenol, 4-(heptylthio)-, acetate]", "TARGET_OR_TEST_SYSTEM": "PBMC", "cytotoxicity compared to APHS": "increase"}

API: the following record is the query input.
I'd like to know its cytotoxicity compared to APHS. The compound in question is "CCCCCCSc1ccccc1O"
increase
